Listed here: items and their measured self-splicing fitness (ln).
experiment: self-splicing fitness, log relative to wild type (ln ratio); higher = more splicing; Tetrahymena group I intron in knt gene, E. coli kanamycin selection, DiMSum; sequences stand for … in CUCUCU…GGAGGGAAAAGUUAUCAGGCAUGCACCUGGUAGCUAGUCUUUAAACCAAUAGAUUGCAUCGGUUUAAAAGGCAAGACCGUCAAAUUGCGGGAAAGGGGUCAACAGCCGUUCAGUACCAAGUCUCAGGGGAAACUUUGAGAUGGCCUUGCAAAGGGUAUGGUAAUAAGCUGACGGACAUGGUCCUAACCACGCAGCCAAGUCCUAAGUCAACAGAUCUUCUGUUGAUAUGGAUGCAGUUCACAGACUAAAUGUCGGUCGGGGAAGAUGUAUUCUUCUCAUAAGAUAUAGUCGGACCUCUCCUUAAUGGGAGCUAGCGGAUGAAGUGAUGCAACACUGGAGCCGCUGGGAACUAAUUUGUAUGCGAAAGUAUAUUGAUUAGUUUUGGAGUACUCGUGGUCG; conditions: 37 °C;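 also: selection with 25 µg/mL kanamycin versus none on LB agar overnight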
Form: value (number only, do not type unit).

- seq: "UCGAAGCAAUAUUACGCCGA"
  self-splicing fitness (ln): -1.16

[Q] Please indicate self-splicing fitness (ln) recorded for "UGUAAGCAAUAUUACGAGCC"
[A] -0.838

[Q] Assign self-splicing fitness (ln) to the following record: "GCUAAGCAAUAUUACGAACC"
[A] 1.05

[Q] Retrieve self-splicing fitness (ln) measured for "CGCCAGCAAUAUUACGUUCA" and print it.
[A] -1.86

[Q] Return reported self-splicing fitness (ln). Input sequence: "CGGAAGCAAUAUUACGAUUU"
[A] -1.51

[Q] For the sequence "CGUCAGCAAUAUUACGAAGC" , report self-splicing fitness (ln).
[A] -2.3

[Q] Return self-splicing fitness (ln) for the following sequence: "CGAUAGCAAUAUUACGGUGG"
[A] -0.748

[Q] Quick one: give measured self-splicing fitness (ln) for "AAGCAGCAAUAUUACGGUGU"
[A] -0.979

---

assay: self-splicing fitness, log relative to wild type (ln ratio); higher = more splicing; Tetrahymena group I intron in knt gene, E. coli kanamycin selection, DiMSum; sequences stand for … in CUCUCU…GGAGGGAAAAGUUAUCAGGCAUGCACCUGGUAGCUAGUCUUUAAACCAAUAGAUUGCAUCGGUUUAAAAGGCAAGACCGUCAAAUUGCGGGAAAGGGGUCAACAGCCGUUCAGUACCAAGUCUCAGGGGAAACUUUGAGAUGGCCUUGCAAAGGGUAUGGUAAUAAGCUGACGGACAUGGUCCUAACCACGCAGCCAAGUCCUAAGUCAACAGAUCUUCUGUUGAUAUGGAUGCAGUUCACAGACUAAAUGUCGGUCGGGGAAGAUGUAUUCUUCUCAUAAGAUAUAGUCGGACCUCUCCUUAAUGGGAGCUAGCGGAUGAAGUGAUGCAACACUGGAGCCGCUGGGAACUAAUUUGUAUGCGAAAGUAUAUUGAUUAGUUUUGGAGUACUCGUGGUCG; conditions: 30 °C
Decision: self-splicing fitness (ln) compared against -3; not below it gives MET, below it gives NOT MET.

- seq: "AGUCAGCAAUAUUACGGUGA"
  cat: "MET"
- seq: "GCUCAGCAAUAUUACGCUGA"
  cat: "MET"
- seq: "AACUAGCAAUAUUACGCCUG"
  cat: "MET"
- seq: "UACUAGCAAUAUUACGUCCA"
  cat: "MET"
- seq: "AUGCAGCAAUAUUACGUAGA"
  cat: "MET"
- seq: "GCGAAGCAAUAUUACGCCCC"
  cat: "MET"
- seq: "GGCAAGCAAUAUUACGUCAA"
  cat: "MET"
- seq: "GGCUAGCAAUAUUACGUUUG"
  cat: "MET"

[Q] Does the reported self-splicing fitness (ln) for "GCAGAGCAAUAUUACGAGUG" fall at or above the -3 mark?
[A] NOT MET

[Q] self-splicing fitness (ln) >= -3 for "UGUAAGCAAUAUUACGCAAG" ?
[A] MET

[Q] Given "UCGAAGCAAUAUUACGUCAC" , state whether its self-splicing fitness (ln) is at least -3.
[A] MET

---

test: self-splicing fitness, log relative to wild type (ln ratio); higher = more splicing; Tetrahymena group I intron in knt gene, E. coli kanamycin selection, DiMSum; sequences stand for … in CUCUCU…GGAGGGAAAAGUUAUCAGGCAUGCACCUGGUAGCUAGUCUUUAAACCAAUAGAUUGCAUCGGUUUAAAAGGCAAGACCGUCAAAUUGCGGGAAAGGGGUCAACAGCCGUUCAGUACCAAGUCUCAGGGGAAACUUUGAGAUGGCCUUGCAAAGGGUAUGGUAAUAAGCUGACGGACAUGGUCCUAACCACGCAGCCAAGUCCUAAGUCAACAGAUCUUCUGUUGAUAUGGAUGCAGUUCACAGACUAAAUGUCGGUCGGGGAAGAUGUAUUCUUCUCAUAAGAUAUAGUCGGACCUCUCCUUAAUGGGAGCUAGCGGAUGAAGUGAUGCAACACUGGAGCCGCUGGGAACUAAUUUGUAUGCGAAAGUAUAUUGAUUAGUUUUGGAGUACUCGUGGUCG; details: 37 °C
// reported self-splicing fitness (ln) for each item listed
Returns: the value as a bare number; no unit string appended.

- seq: "GCAGAGCAAUAUUACGUGCU"
  readout.kind: "self-splicing fitness (ln)"
  readout.number: -2.73
- seq: "UACCAGCAAUAUUACGCUGU"
  readout.kind: "self-splicing fitness (ln)"
  readout.number: -1.36
- seq: "CAUUAGCAAUAUUACGUACC"
  readout.kind: "self-splicing fitness (ln)"
  readout.number: -1.28
- seq: "GGGGAGCAAUAUUACGAUUU"
  readout.kind: "self-splicing fitness (ln)"
  readout.number: -0.868

Shift focus to the following entry.
[Q] Let me know recorded self-splicing fitness (ln) for "UACGAGCAAUAUUACGGAUA" , thanks.
[A] -1.43

---

experiment: self-splicing fitness, log relative to wild type (ln ratio); higher = more splicing; Tetrahymena group I intron in knt gene, E. coli kanamycin selection, DiMSum; sequences stand for … in CUCUCU…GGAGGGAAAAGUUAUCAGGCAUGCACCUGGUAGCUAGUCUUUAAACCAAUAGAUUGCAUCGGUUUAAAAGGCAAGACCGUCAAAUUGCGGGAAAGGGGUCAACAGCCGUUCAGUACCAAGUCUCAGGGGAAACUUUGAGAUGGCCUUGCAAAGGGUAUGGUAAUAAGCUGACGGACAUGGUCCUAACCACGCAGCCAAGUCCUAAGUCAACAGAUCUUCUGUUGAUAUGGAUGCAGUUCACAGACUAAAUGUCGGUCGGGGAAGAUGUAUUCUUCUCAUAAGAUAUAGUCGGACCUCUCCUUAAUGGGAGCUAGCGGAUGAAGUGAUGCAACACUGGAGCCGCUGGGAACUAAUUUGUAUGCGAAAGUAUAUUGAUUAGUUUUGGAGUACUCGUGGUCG; conditions: 30 °C
Hi, to clarify the labels: 1 (yes) covers self-splicing fitness (ln) from -3 upward, 0 (no) covers anything below -3.

Some solved entries appear below for comparison.
- seq: "CUCCAGCAAUAUUACGCCCG"
  cat: "1 (yes)"
- seq: "GGCGAGCAAUAUUACGUUAA"
  cat: "1 (yes)"
- seq: "GGUGAGCAAUAUUACGUUCC"
  cat: "1 (yes)"
- seq: "CCCAAGCAAUAUUACGCUGA"
  cat: "0 (no)"
- seq: "GAGUAGCAAUAUUACGUAUU"
  cat: "0 (no)"

[Q] API: above_or_equal(metric=self-splicing fitness (ln), cutoff=-3) for item "AAUUAGCAAUAUUACGAUCU"
[A] 1 (yes)

[Q] Textbook exercise: given the entry "GAAUAGCAAUAUUACGAUGG" , state whether its self-splicing fitness (ln) is greater than or equal to -3.
[A] 1 (yes)

---

experiment: self-splicing fitness, log relative to wild type (ln ratio); higher = more splicing; Tetrahymena group I intron in knt gene, E. coli kanamycin selection, DiMSum; sequences stand for … in CUCUCU…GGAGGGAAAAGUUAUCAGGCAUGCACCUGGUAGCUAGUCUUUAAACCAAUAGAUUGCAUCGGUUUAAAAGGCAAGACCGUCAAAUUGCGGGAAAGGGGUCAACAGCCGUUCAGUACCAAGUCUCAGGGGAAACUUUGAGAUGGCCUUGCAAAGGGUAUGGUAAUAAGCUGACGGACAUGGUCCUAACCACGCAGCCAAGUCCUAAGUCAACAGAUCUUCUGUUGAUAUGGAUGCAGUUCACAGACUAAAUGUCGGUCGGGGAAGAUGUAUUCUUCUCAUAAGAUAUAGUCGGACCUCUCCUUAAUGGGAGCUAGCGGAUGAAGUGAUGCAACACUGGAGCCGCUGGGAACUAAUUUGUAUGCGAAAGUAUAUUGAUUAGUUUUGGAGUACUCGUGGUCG; conditions: 30 °C
readout.kind: self-splicing fitness (ln)
Format: numeric value only, no unit, no commentary.

// worked examples, self-splicing fitness (ln) included
- seq: "AUAUAGCAAUAUUACGGGUU"
  readout.kind: "self-splicing fitness (ln)"
  readout.number: -3.43
- seq: "CAACAGCAAUAUUACGCUCA"
  readout.kind: "self-splicing fitness (ln)"
  readout.number: -1.15
- seq: "GGGAAGCAAUAUUACGGCAU"
  readout.kind: "self-splicing fitness (ln)"
  readout.number: -0.534
- seq: "GGGUAGCAAUAUUACGCGUA"
  readout.kind: "self-splicing fitness (ln)"
  readout.number: -0.49
- seq: "GUCAAGCAAUAUUACGUUCC"
  readout.kind: "self-splicing fitness (ln)"
  readout.number: -1.5
- seq: "GGACAGCAAUAUUACGUUUA"
  readout.kind: "self-splicing fitness (ln)"
  readout.number: -0.44
- seq: "AGUAAGCAAUAUUACGCGCA"
  readout.kind: "self-splicing fitness (ln)"
  readout.number: -1.02
- seq: "CAUUAGCAAUAUUACGCACU"
  readout.kind: "self-splicing fitness (ln)"
  readout.number: -1.26
- seq: "GUGCAGCAAUAUUACGUUAA"
  readout.kind: "self-splicing fitness (ln)"
  readout.number: -1.75
- seq: "GCCCAGCAAUAUUACGUCAA"
  readout.kind: "self-splicing fitness (ln)"
  readout.number: -2.62

[Q] Please report self-splicing fitness (ln) for the following sequence: "GUAGAGCAAUAUUACGGUUC"
[A] -1.84

[Q] Report measured self-splicing fitness (ln); entry is "CGAUAGCAAUAUUACGAUAG"
[A] -0.572

[Q] Please give the documented self-splicing fitness (ln) of "GACAAGCAAUAUUACGAGGC"
[A] -2.4

[Q] Give self-splicing fitness (ln) for the following sequence: "UACAAGCAAUAUUACGGUAA"
[A] -2.12

[Q] Hello, please tell me recorded self-splicing fitness (ln) for this one: "GAGUAGCAAUAUUACGUUCC"
[A] -1.88

[Q] Give the reported self-splicing fitness (ln) for this sequence. "CCUGAGCAAUAUUACGCUCA"
[A] -1.37

[Q] Recall and state the measured self-splicing fitness (ln) for "ACAUAGCAAUAUUACGUUGC" .
[A] -4.02

[Q] Return value of self-splicing fitness (ln) for input "CUGUAGCAAUAUUACGUGUU" , no commentary.
[A] -4.29

[Q] Given "AGACAGCAAUAUUACGUCGU" , respond with its self-splicing fitness (ln).
[A] -2.21
